Target or test system: human EGFRvIII-hFc protein (human) (UniProt P00533)
Assay procedure: ELISA, EGFRvIII-hFc coated
Each record here notes measured Maximum OD450 value.
The figure you give is taken to be in OD450; do not add the unit.

binder="Humanized antibody h75G7C6-8 (antibody, human IgG1, V domains shown) VH: QVQLVQSGAEVKKPGASVKVSCKASGYTFTDYNMDWVRQAPGQGLEWMGDINPNNADTIYNQKFKGRVTMTRDTSTSTVYMELSSLRSEDTAVYYCARGDYDGYYPVYYAMDYWGQGTTVTVSS VL: ENVLTQSPATLSLSPGERATLSCRASSSVSSSYLHWYQQKPGQSPRLLIFSTSNLAAGVPARFSGSGSGTDYTLTISSLEPEDFAVYYCQQYSGYPLTFGGGTKVEIK" measured_result=2.72
binder="Humanized antibody h75G7C6-2 (antibody, human IgG1, V domains shown) VH: EVQLVQSGAEVKKPGASVKVSCKASGYTFTDYNMDWVKQAPGQGLEWIGDINPNNADTIYNQKFKGRVTLTVDKSTSTVYMELSSLRSEDTAVYYCARGDYDGYYPVYYAMDYWGQGTTVTVSS VL: ENVLTQSPATLSLSPGERATLSCRASSSVSSSYLHWYQQKPGQAPRLLIFSTSNLAAGIPARFSGSGSGTDYTLTISSLEPEDFAVYYCQQYSGYPLTFGGGTKVEIK" measured_result=3.38
binder="Humanized antibody h75G7C6-1 (antibody, human IgG1, V domains shown) VH: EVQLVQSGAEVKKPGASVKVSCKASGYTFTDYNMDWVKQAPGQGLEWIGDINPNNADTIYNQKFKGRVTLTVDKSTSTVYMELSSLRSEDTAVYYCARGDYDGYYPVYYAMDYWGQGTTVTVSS VL: EIVLTQSPATLSLSPGERATLSCRASSSVSSSYLHWYQQKPGQAPRLLIYSTSNLAAGIPARFSGSGSGTDFTLTISSLEPEDFAVYYCQQYSGYPLTFGGGTKVEIK" measured_result=3.41

// below: Maximum OD450 value requested for another binder
Return value of Maximum OD450 value for input Humanized antibody h75G7C6-4 (antibody, human IgG1, V domains shown) VH: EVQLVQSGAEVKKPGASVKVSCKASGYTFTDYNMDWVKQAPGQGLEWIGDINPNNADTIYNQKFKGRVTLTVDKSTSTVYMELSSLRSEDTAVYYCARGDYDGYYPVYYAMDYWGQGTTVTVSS VL: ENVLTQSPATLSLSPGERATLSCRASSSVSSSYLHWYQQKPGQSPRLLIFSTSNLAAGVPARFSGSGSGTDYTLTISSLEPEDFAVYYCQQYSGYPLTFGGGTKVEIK , no commentary. 3.37
